The reader will find IC50 measurements below, all made with Receptor-type tyrosine-protein kinase FLT3 (Homo sapiens, UniProt P36888).
Sequence (P36888 whole entry): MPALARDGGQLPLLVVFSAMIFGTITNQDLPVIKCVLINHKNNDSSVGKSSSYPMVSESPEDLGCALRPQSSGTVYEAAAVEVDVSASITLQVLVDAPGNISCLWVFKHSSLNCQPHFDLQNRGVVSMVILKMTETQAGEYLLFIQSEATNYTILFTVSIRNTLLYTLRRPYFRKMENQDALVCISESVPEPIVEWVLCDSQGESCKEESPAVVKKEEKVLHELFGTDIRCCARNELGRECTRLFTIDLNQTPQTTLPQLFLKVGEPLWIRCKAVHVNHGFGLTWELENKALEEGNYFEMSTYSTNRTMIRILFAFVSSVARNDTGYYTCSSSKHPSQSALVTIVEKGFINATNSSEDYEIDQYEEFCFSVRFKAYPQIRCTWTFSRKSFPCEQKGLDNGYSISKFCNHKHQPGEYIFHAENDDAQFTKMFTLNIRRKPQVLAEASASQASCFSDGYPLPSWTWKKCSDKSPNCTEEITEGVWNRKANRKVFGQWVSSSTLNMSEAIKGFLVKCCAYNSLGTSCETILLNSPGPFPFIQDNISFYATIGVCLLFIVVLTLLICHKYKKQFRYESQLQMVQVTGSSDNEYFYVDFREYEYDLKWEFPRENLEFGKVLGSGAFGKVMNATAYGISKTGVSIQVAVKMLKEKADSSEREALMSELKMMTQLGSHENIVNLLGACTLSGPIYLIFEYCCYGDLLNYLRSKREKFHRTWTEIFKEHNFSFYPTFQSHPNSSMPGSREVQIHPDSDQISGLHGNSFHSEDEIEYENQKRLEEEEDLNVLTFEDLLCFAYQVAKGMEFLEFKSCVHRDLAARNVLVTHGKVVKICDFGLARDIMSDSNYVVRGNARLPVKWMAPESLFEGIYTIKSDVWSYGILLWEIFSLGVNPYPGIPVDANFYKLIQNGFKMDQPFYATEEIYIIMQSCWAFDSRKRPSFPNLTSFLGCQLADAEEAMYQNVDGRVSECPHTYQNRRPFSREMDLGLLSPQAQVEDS
State just the number; it will be interpreted in nM.

Example entries begin here.
CC1=CC(=O)N(Nc2nc(-c3cccs3)nc3scc(-c4cccc(OCCN5CCOCC5)c4)c23)C1=O 540
CC1=CC(=O)N(Nc2nc(-c3cccs3)nc3scc(C)c23)C1=O 65
CC1=CC(=O)N(Nc2nc(-c3cccs3)nc3scc(-c4ccc(OCCN5CCCCC5)cc4)c23)C1=O.Cl 85
CC1=CC(=O)N(Nc2nc(-c3cccs3)nc3scc(-c4cccc(O)c4)c23)C1=O 488

Note: attention shifts to another entry.
Item CC1=CC(=O)N(Nc2nc(-c3cccs3)nc3scc(-c4cccc(OCCN5CCCCC5)c4)c23)C1=O was tested on Receptor-type tyrosine-protein kinase FLT3 (Homo sapiens, UniProt P36888); the reported IC50 is 133

====

Overview of recorded pIC50 for various compounds
# System: RAW264.7
# test: cells
# experimental setup: Mus musculus
# Description: Antiinflammatory activity against mouse RAW264.7 cells assessed as reduction of LPS-induced TNF-alpha production
# pIC50 is unitless: minus log10 of the molar concentration; print number only

CC1=CC(=O)N(Nc2nc(-c3cccs3)nc3scc(-c4ccc(O)cc4)c23)C1=O 5.88
CC1=CC(=O)N(Nc2nc(-c3ccco3)nc3scc(-c4cccs4)c23)C1=O 5.40
COc1cccc2nc(-c3cccs3)nc(NN3C(=O)C=C(C)C3=O)c12 5.48
CC1=CC(=O)N(Nc2nc(C3CC3)nc3scc(-c4cccs4)c23)C1=O 5.36
CC1=CC(=O)N(Nc2nc(-c3cccs3)nc3scc(-c4cccc(O)c4)c23)C1=O 5.57

Note to self: pIC50 recorded for CC1=CC(=O)N(Nc2nc(-c3cccs3)nc3scc(-c4cccc(OCCN5CCCCC5)c4)c23)C1=O was 5.53

Note to self: pIC50 recorded for CC1=CC(=O)N(Nc2nc(-c3cccs3)nc3scc(-c4cccc(OCCN(C)C)c4)c23)C1=O was 5.01

Note to self: pIC50 recorded for CCOC(=O)Cc1csc2nc(-c3cccs3)nc(NN3C(=O)C=C(C)C3=O)c12 was 5.28

Note to self: pIC50 recorded for CC1=CC(=O)N(Nc2nc(-c3cccs3)nc3scc(C)c23)C1=O was 5.37

Note to self: pIC50 recorded for CC1=CC(=O)N(Nc2nc(-c3cccs3)nc3sccc23)C1=O was 5.05

Note to self: pIC50 recorded for COc1ccc(-c2nc(NN3C(=O)C=C(C)C3=O)c3c(-c4cccs4)csc3n2)cc1 was 5.86

Note to self: pIC50 recorded for CC1=CC(=O)N(Nc2nc(-c3cccs3)nc3scc(-c4ccccc4)c23)C1=O was 5.89

Note to self: pIC50 recorded for CC1=CC(=O)N(Nc2nc(-c3ccccc3)nc3scc(-c4cccs4)c23)C1=O was 5.95

====

The reader will find IC50 measurements below, all made with Inhibitor of nuclear factor kappa-B kinase subunit beta (Homo sapiens, UniProt O14920).
Sequence (O14920 whole entry): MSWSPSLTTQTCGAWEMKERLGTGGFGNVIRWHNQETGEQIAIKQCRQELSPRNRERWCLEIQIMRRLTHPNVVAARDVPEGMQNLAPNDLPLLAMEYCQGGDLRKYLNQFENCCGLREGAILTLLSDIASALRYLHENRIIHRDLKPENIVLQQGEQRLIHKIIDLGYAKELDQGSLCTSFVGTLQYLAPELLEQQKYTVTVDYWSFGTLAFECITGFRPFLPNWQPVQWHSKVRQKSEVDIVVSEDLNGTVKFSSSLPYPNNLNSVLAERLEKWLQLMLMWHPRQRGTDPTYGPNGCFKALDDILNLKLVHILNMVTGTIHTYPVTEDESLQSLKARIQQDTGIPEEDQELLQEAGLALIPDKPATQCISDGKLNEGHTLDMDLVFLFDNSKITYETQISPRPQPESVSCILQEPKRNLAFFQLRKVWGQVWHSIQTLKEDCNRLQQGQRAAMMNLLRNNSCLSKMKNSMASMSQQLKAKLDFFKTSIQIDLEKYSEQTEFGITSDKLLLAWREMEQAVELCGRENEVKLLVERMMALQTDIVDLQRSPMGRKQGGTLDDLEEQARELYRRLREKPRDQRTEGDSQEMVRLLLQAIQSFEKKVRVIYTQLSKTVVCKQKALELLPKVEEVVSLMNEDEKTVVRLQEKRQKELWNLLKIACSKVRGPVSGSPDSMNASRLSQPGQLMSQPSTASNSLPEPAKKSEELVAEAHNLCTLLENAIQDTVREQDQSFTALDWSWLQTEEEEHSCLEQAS

CC1=CC(=O)N(Nc2nc(-c3cccs3)nc3scc(-c4cccc(OCCN5CCOCC5)c4)c23)C1=O > 50 µM

Note: attention shifts to another entry.
Item CC1=CC(=O)N(Nc2nc(-c3cccs3)nc3scc(-c4cccc(OCCN(C)C)c4)c23)C1=O was tested on Inhibitor of nuclear factor kappa-B kinase subunit beta (Homo sapiens, UniProt O14920); the reported IC50 is > 50 µM

====

# Test system: RAW264.7
# test: cells
# experimental setup: Mus musculus
readout label: IC50 (µM)
State just the number; it will be interpreted in µM.

Example entries begin here.
COc1cccc(-c2nc(NN3C(=O)C=C(C)C3=O)c3c(-c4cccs4)csc3n2)c1 1.24
CC1=CC(=O)N(Nc2nc(-c3cccs3)nc3scc(-c4cccs4)c23)C1=O 0.71
CC1=CC(=O)N(Nc2nc(-c3cccs3)nc3scc(-c4cccc(OCCN5CCOCC5)c4)c23)C1=O 2.38

Note to self: IC50 recorded for CC1=CC(=O)N(Nc2nc(-c3cccs3)nc3scc(-c4ccc(OCCN5CCCCC5)cc4)c23)C1=O.Cl was 2.14
